# credit: patent US6310056A

Please provide measured log10 MIC for the entries that follow.
system: E. faecalis W-73; experiment: Anti-microbial activities (MIC); format: cell-based; conditions: Enterococcus faecalis, W73, Sensitivity Disk agar-N+5% Horse blood, 10^6 CFU/ml, read-out: minimum inhibiting concentration (MIC)
Heads up: the numbers are on a log10 scale; they represent MIC in µg/mL.

MOLECULE	log10 MIC
C[C@@H](O)[C@H]1C(=O)N2C(C(=O)O)=C(c3cn4cncc4s3)[C@H](C)[C@H]12	-0.70
C[C@@H](O)[C@H]1C(=O)N2C(C(=O)[O-])=C(c3cn4c[n+](C)cc4s3)[C@H](C)[C@H]12	-1.00
C[C@@H](O)[C@H]1C(=O)N2C(C(=O)O)=C(c3cn4cncc4s3)C[C@H]12	-0.41
C[C@@H](O)[C@H]1C(=O)N2C(C(=O)O)=C(S[C@@H]3CN[C@H](Cc4cn5c[n+](C)cc5s4)C3)[C@H](C)[C@H]12 [Compound B, reference compound]	0.50

Lab note: next molecule to report on.
Incoming: Given C[C@@H](O)[C@H]1C(=O)N2C(C(=O)O)=C(SCCN=CN)C[C@H]12 [Compound A, imipenem, reference compound] , state its recorded log10 MIC.
Outgoing: -0.11

###

tested on: S. aureus M126 (methicillin-hyper resistant strain, MRSA); assay: Anti-microbial activities (MIC); assay type: cell-based; conditions: Staphylococcus aureus, Sensitivity Disk agar-N+5% Horse blood, 10^6 CFU/ml, read-out: minimum inhibiting concentration (MIC)
MEASURED_ATTRIBUTE: MIC (µg/mL)
One number for each entry, in µg/mL.

COMPOUND	NUMBER
C[C@@H](O)[C@H]1C(=O)N2C(C(=O)O)=C(c3cn4cncc4s3)[C@H](C)[C@H]12	3.13
C[C@@H](O)[C@H]1C(=O)N2C(C(=O)[O-])=C(c3cn4c[n+](C)cc4s3)[C@H](C)[C@H]12	3.13

Please look at the items below and tell me MIC for each one, in order.
1. C[C@@H](O)[C@H]1C(=O)N2C(C(=O)O)=C(c3cn4cncc4s3)C[C@H]12
2. C[C@@H](O)[C@H]1C(=O)N2C(C(=O)O)=C(S[C@@H]3CN[C@H](Cc4cn5c[n+](C)cc5s4)C3)[C@H](C)[C@H]12 [Compound B, reference compound]
3. C[C@@H](O)[C@H]1C(=O)N2C(C(=O)O)=C(SCCN=CN)C[C@H]12 [Compound A, imipenem, reference compound]

Outgoing:
1. 6.25
2. 6.25
3. 25

###

system: H. influenzae PRC44; experiment: Anti-microbial activities (MIC); type: cell-based; settings: Haemophilus influenzae, Sensitivity Disk agar-N+5% Horse blood, 10^6 CFU/ml, read-out: minimum inhibiting concentration (MIC)
MEASURED_ATTRIBUTE: MIC (µg/mL)
Answers are plain numbers, in µg/mL.

Solved entries:
COMPOUND	UNIT_SPEC	MIC
C[C@@H](O)[C@H]1C(=O)N2C(C(=O)O)=C(c3cn4cncc4s3)[C@H](C)[C@H]12 [Example 1]	µg/mL	0.39
C[C@@H](O)[C@H]1C(=O)N2C(C(=O)O)=C(SCCN=CN)C[C@H]12 [Compound A, imipenem, reference compound]	µg/mL	12.5
C[C@@H](O)[C@H]1C(=O)N2C(C(=O)O)=C(c3cn4cncc4s3)C[C@H]12 [Example 8]	µg/mL	0.78
C[C@@H](O)[C@H]1C(=O)N2C(C(=O)O)=C(S[C@@H]3CN[C@H](Cc4cn5c[n+](C)cc5s4)C3)[C@H](C)[C@H]12 [Compound B, reference compound]	µg/mL	0.78

Lab note: next compound to report on.
Incoming: Given C[C@@H](O)[C@H]1C(=O)N2C(C(=O)[O-])=C(c3cn4c[n+](C)cc4s3)[C@H](C)[C@H]12 [Example 4] , state its recorded MIC.
Outgoing: 0.39
